Reference for the values: patent EP4311580A1

# System: MG-63 osteoblast cells
# protocol-text: Time to confluence of MG-63 osteoblast cells in tissue culture with fluoride compounds in the medium
# recorded-conditions: compounds at 1400ppm fluoride in cell growth media; 5x10cm tissue culture flasks; control without fluoride 4-5 days
outcome-measure: Time to confluence

Completed entries (count: 4):
- compound: "CCOC(=O)[C@@H](N)Cc1ccc(O)cc1.F.N [Tyrosine-O-ethylester-ammoniumfluoride]"
  Time to confluence: "5 to 6 days"
- compound: "CCOC(=O)[C@@H](N)Cc1c[nH]c2ccccc12"
  Time to confluence: "8 to 9 days"
- compound: "CCOC(=O)[C@H](C)N.F.N [Alanine-O-ethylester-ammoniumfluoride]"
  Time to confluence: "5 to 6 days"
- compound: "NC(Cc1c[nH]c2ccccc12)C(=O)O (centres unmarked) [Tryptophan-N-ammonium-mono-hydrofluoride]"
  Time to confluence: "5 to 6 days"

Given F.F.N.N.N[C@@H](Cc1c[nH]cn1)C(=O)O [Histidine-ammonium-difluoride] , state its recorded Time to confluence.
7 to 8 days
